src = paper PMC9926234

SYSTEM_TESTED: SARS-CoV-2 NSP3 Mac1 (Severe acute respiratory syndrome coronavirus 2)
Format: binding
CONDITION_SET: ligand modeled; crystal soak, Compound_concentration 100 mM, Echo_dispense_volume 40 nl
PROPERTY: Modeled?

Solved cases (8 shown):
Fc1ccc2c(c1)[nH]c1ncnc(N3CCOC(c4nnn[nH]4)C3)c12 (stereo not drawn); TRUE
O=C(O)c1ccc(F)c(CNC(=O)c2ccc3[nH]ccc3c2)c1; TRUE
O=C(O)CC(NC(=O)c1cc(F)cc2[nH]cnc12)c1ccc(Br)cc1 (stereo not drawn); TRUE
CO[C@@H]1CN(c2ncnc3[nH]c4cc(F)ccc4c23)C[C@@H](CO)O1; TRUE
O=C1OCCN1C1CCN(c2ncnc3[nH]c4cc(F)ccc4c23)C1 (stereo not drawn); TRUE
CCC(=O)Nc1nc(C)c(S(=O)(=O)Nc2cccc(C#N)c2)s1; TRUE
CCNc1ncc(C(=O)NCCn2cnc(C(=O)O)c2)s1; TRUE
OCC1CN(c2ncnc3[nH]c4cc(F)ccc4c23)CC2(CCC2)O1 (stereo not drawn); TRUE

Would you kindly look at the next entry?
Please report Modeled? for the following compound: O=C(O)C1CN(c2ncnc3[nH]c4cc(F)ccc4c23)CC12CCC2 (stereo not drawn)
TRUE

* * *

Tested on: P-glycoprotein (human MDR1)
TEST_METHOD_NOTES: MDR1-MDCK II cell permeability
CONDITION_SET: dog, MDCK-MDR1, pH 7.4
PROPERTY: Papp A→B at 90 min, 10 µM (nm/s)
// units = nm/s; emit number, no label

Fill: Papp A→B at 90 min, 10 µM (P-glycoprotein (human MDR1)) for this compound CC(C(=O)O)c1cccc(C(=O)c2ccccc2)c1 (stereo not shown)
176

* * *

Catalogue of 1-BDC readings, one per entry.
SYSTEM_TESTED: SARS-CoV-2 NSP3 Mac1 (Severe acute respiratory syndrome coronavirus 2)
Type: binding
CONDITION_SET: PanDDA 1-BDC (background density correction) of the event; crystal soak 100 mM; PanDDA run dmso_34
// print number alone

In the examples that follow, each entry is paired with its recorded 1-BDC.
O=C1CCCN1CCSc1ncnc2[nH]cnc12; 0.21
CCc1c[nH]c2ncnc(N3CCCC(Cc4nc(C)no4)C3)c12 (centres unmarked); 0.2
Nc1ncnc2c1ncn2Cc1cccc(C(F)(F)F)c1; 0.35
c1csc(CC2CCN(c3ncnc4[nH]ccc34)C2)n1 (centres unmarked); 0.3
O=S1(=O)CCC2(CCCN(c3ncnc4[nH]ccc34)C2)C1 (centres unmarked); 0.38

Supply 1-BDC value. Item: CCc1c[nH]c2ncnc(N3CCCC(S(C)(=O)=O)C3)c12 (centres unmarked)
0.17

For the molecule CNc1cc(-c2noc(CN3CCCC3=O)n2)ncn1 , give its measured 1-BDC value.
0.05

Tell me measured 1-BDC for Nc1ncnc2c1ncn2Cc1ccc(Cl)cn1 please.
0.15

Read off the recorded 1-BDC for O=c1[nH]nc(C2CCCN(c3ncnc4[nH]ccc34)C2)o1 (centres unmarked)
0.09

Check the records and state 1-BDC for CC(CSc1nnc2[nH]cnn12)c1ccccc1 (centres unmarked)
0.2

Quick one: give measured 1-BDC for Cc1oc(=O)oc1CSc1ncnc2[nH]cnc12
0.23

// Input: CC(C)c1noc(CCc2nc(-c3ccnc4[nH]ccc34)no2)n1 . Output its 1-BDC only.
0.03

Specify 1-BDC for Nc1ncnc2c1ncn2Cc1cc(-c2ccco2)on1 and stop.
0.16

Name the recorded 1-BDC of the item Nc1ncnc2c1ncn2CCCc1ccsc1 in your answer.
0.16

Answer with the recorded 1-BDC for the molecule listed here: OCc1cn(C2CCCN(c3ncnc4[nH]ccc34)C2)nn1 (centres unmarked)
0.05

Fill in 1-BDC for record N#Cc1ccc(OCCn2cnc3c(N)ncnc32)cc1
0.31

Tell me measured 1-BDC for O=C(c1ncnc2[nH]ccc12)N1CC=CC12CCCCC2 please.
0.18

* * *

SYSTEM_TESTED: SARS-CoV-2 NSP3 Mac1 (Severe acute respiratory syndrome coronavirus 2)
TEST_METHOD_NOTES: biochemical
Type: binding
CONDITION_SET: HTRF; read-out: IC50
Catalogue of pIC50 values
Quick note: pIC50 values are minus log10 of concentrations in mol/L.

Use these answered entries as a reference point.
O=C(O)CC1CN(c2ncnc3[nH]c4ccccc4c23)CCO1 (stereo not shown); 4.43
O=C(O)C1(F)CN(c2cc(Nc3ccccc3)ncn2)CC12CCC2 (stereo not shown); 3.92
O=C(Nc1ccc(C(=O)NC2c3cccc(O)c3CC2C(=O)O)c2scnc12)NC1CC1 (stereo not shown); 5.32

Please report pIC50 for the following compound: O=C(O)CCC1CCCN(c2ncnc3[nH]c4cc(F)ccc4c23)C1 (stereo not shown)
4.59

* * *

// values below are reported pKi
SYSTEM_TESTED: SARS-CoV-2 NSP3 Mac1 (Severe acute respiratory syndrome coronavirus 2)
TEST_METHOD_NOTES: biochemical
Format: binding
CONDITION_SET: Ki estimation from HTRF-derived IC50, Cheng-Prusoff, peptide 400nM, Kd 2.68µM; read-out: Ki***
# log scale: pKi equals minus log10 of the concentration in mol/L

Recorded results for 5 molecules are shown here.
O=C(O)C1(F)CN(c2ncnc3[nH]c4cc(Br)ccc4c23)CC12CCC2 (stereo not shown); 4.09
Cc1c[nH]c2ncc(C(=O)N(C)c3nnn[nH]3)cc12; 4.44
O=C(O)C[C@@H]1CN(c2ncnc3[nH]c4cc(F)ccc4c23)C[C@H](CO)O1; 5.15
O=C(OCCN1CCOC1=O)c1ncnc2[nH]ccc12; 4.28
O=C(Nc1ccc(C(=O)NC2c3cccc(O)c3CC2C(=O)O)c2scnc12)NC1CC1 (stereo not shown); 5.38

Return pKi for the following molecule: O=C(Nc1ccc(C(=O)NC2c3cccc(O)c3CC2C(=O)O)c(O)c1)NC1CC1 (stereo not shown)
6.52

Let me know recorded pKi for O=C(CSc1nnn[nH]1)c1c[nH]c2ncc(Br)cc12 , thanks.
4.32

In one line, give reported pKi of the entry O=S1(=O)CCC2(CCCN(c3ncnc4[nH]ccc34)C2)C1 (stereo not shown) .
3.83

Kindly indicate its recorded pKi. Item: O=C(O)C(F)(F)F.O=C(O)C1CN(c2ncnc3[nH]c4ccccc4c23)CC12CCC2 (stereo not shown)
4.87

Specify reported pKi for the molecule shown: CNC(=O)Nc1ccc(C(=O)NC2c3cccc(O)c3CC2C(=O)O)cc1 (stereo not shown)
6.05

Give the measured pKi for O=C(Nc1ccc(C(=O)N[C@H]2c3ccccc3CC[C@H]2C(=O)O)cc1)NC1CC1
5.29

Assign pKi to the following record: O=C(O)CC1CN(c2ncnc3[nH]c4cc(Br)ccc4c23)CCO1 (stereo not shown)
4.65

Tell me pKi reported for O=C(NC1c2cccc(O)c2CC1C(=O)O)c1ccc(NCC2CC2)nc1 (stereo not shown)
4.83

Give the measured pKi for O=C(O)CCC1CCCN(c2ncnc3[nH]c4cc(F)ccc4c23)C1 (stereo not shown)
4.65

Look up and report measured pKi for this entry: O=C(Nc1ccc(C(=O)NCc2c(C(=O)O)sc3ccccc23)cc1)NC1CC1
4.75

State, in one line, measured pKi of O=C(O)CC1CN(c2ncnc3[nH]ccc23)CC2(CCC2)O1 (stereo not shown)
4.41

Supply measured pKi of O=C(NC1c2cccc(O)c2CC1C(=O)O)c1cnc(NC2CCOCC2)cn1 (stereo not shown) in your reply.
5.25

Name the recorded pKi of the item CNC(=O)Nc1ccc(C(=O)NC2c3ccccc3CC2C(=O)O)cc1 (stereo not shown) in your answer.
5.05

Give the reported pKi for this molecule. O=C(O)CC1CN(c2ncnc3[nH]c4ccccc4c23)CC(C(F)(F)F)O1 (stereo not shown)
3.98

* * *

Entries and their measured 1-BDC follow.
SYSTEM_TESTED: SARS-CoV-2 NSP3 Mac1 (Severe acute respiratory syndrome coronavirus 2, UniProt P0DTD1)
Assay type: binding
CONDITION_SET: PanDDA 1-BDC of the event; compound stock 100 mM, Echo dispense volume 80 nl
Number only, no unit.

O=C(O)[C@@H]1[C@@H]2CCN(c3ncnc4[nH]c5cc(F)ccc5c34)C[C@@H]21; 0.17

Fetch value of 1-BDC on SARS-CoV-2 NSP3 Mac1 (Severe acute respiratory syndrome coronavirus 2, UniProt P0DTD1) for CO[C@@H]1CN(c2ncnc3[nH]c4cc(F)ccc4c23)C[C@@H](CO)O1 .
0.25

Write 1-BDC of O=C(O)CCC1CN(c2ncnc3[nH]c4cc(F)ccc4c23)CCO1 (stereo not drawn) ; system used: SARS-CoV-2 NSP3 Mac1 (Severe acute respiratory syndrome coronavirus 2, UniProt P0DTD1)
0.15

* * *

// reported 1-BDC for each item listed
SYSTEM_TESTED: SARS-CoV-2 NSP3 Mac1 (Severe acute respiratory syndrome coronavirus 2)
Assay type: binding
CONDITION_SET: PanDDA event map 1-BDC; crystal soak, Compound_concentration 100 mM; PanDDA run dmso_34 or nohits_35 per dataset
# print the numeric value only

Study these solved cases before continuing.
O=C(O)C(O)C1CCCN(c2ncnc3[nH]c4cc(F)ccc4c23)C1 (stereo not drawn); 0.2
O=C(Nc1ccc(C(=O)NC2c3cccc(O)c3CC2C(=O)O)c(O)c1)NC1CC1 (stereo not drawn); 0.24
CNC(=O)Nc1ccc(C(=O)NC2c3cccc(O)c3CC2C(=O)O)cc1 (stereo not drawn); 0.25
c1ccc(CNc2ncnc3[nH]ccc23)nc1; 0.09
O=C(O)C[C@@H]1CN(c2ncnc3[nH]c4cc(F)ccc4c23)C[C@H](CO)O1; 0.14

Give 1-BDC for OCC1CN(c2ncnc3[nH]c4cc(F)ccc4c23)CC2(CCC2)O1 (stereo not drawn)
0.09

# return recorded 1-BDC for input FC1(F)CCCC(Nc2ncnc3[nH]ccc23)C1 (stereo not drawn)
0.09

Find the measured 1-BDC of O=C(Nc1ccc(C(=O)NC2c3cccc(O)c3CC2C(=O)O)c2scnc12)NC1CC1 (stereo not drawn) and report it.
0.09

Check the records and state 1-BDC for CO[C@@H]1CN(c2ncnc3[nH]c4cc(F)ccc4c23)C[C@@H](CO)O1
0.23
